Measured on: Mitogen-activated protein kinase 10 (Mus musculus) (UniProt Q61831)
Experimental details: JNK3 AlphaScreen Assay (AID 530);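 further: kinase came from lysate of stimulated human HepG2 cells; signal reports phosphorylation of biotinylated GST-cJun 1-79 at Ser73 with 10 µM ATP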
Particulars: JNK3 lysate, c-Jun phosphorylation; series mostly up to 25.6 µM
Inconclusive results are not listed. Active and inactive are the calls of the source. The call rests on the fitted dose curve; in most records, active means well fitted curve in either direction with a large enough effect (not every such curve was filed as active); inconclusive means small, poorly fitted or top-dose-only effect, or another doubt; inactive means flat fitted curve, though single readings scatter.
Value kind: outcome

CCOC(=O)O[C@@H](C)OC(=O)[C@@H]1N2C(=O)[C@@H](NC(=O)[C@@H](N)c3ccccc3)[C@H]2SC1(C)C: inactive
O=C1OCCN1/N=C\c1ccc([N+](=O)[O-])o1: inactive
C[C@H]1CC[C@]2(OC1)O[C@@H]1C[C@@H]3[C@@H]4CC[C@H]5C[C@@H](O)CC[C@]5(C)[C@@H]4CC(=O)[C@@]3(C)[C@H]1[C@@H]2C: inactive
CC(C)CC(=O)N[C@H](C(=O)N[C@H](C(=O)N[C@@H](CC(C)C)[C@H](O)CC(=O)N[C@@H](C)C(=O)N[C@@H](CC(C)C)[C@H](O)CC(=O)O)C(C)C)C(C)C: inactive
CC(C)(C)NC(=O)[C@@H]1C[C@H]2CCCC[C@@H]2CN1C[C@H](O)[C@H](Cc1ccccc1)NC(=O)[C@@H](CC(N)=O)NC(=O)c1ccc2ccccc2n1: inactive
CCc1c(C)[nH]c2c1C(=O)[C@H](CN1CCOCC1)CC2: inactive

* * *

Test system: W2
Experimental details: qHTS profiling for inhibitors of Plasmodium falciparum proliferation (AID 504749); further: nearly all actives have a fitted effect of over 60% in size
Particulars: P. falciparum in erythrocytes, SYBR Green DNA, 72 h; series mostly up to 12.8 µM
Method: NIH National Institute of Allergy and Infectious Diseases [NIAID] NIH Chemical Genomics Center [NCGC] […] Because mature erythrocytes lack DNA, only Plasmodium-derived DNA is detected. NCGC Assay Protocol Summary: The SYBR Green viability assay was adapted from a method described previously (Plouffe et al., 2008). […] The following morning, fluorescence intensity at 485(14) nm excitation and 535(25) nm emission wavelengths was measured on an EnVision (Perkin Elmer) plate reader. […]
Inconclusive results are not listed. Calls of active or inactive are those of the source. The call rests on the fitted dose curve; in most records, active means well fitted inhibition curve with a large enough effect; inconclusive means small, poorly fitted or top-dose-only effect; inactive means flat fitted curve, though single readings scatter.
Outcome codes: active, inactive

NC(=O)c1ccc[n+]([C@@H]2O[C@H](COP(=O)([O-])OP(=O)(O)OC[C@H]3O[C@@H](n4cnc5c(N)ncnc54)[C@@H](O)[C@@H]3O)[C@@H](O)[C@@H]2O)c1: inactive
COc1ccc2cc(C(C)CO)ccc2c1 (configuration not stated): inactive
C[C@@]12C=CC(=O)C=C1CCC1C3CC(O)[C@@](O)(C(=O)CO)[C@]3(C)CC(O)[C@]12F (some centres not stated): inactive
Cn1nnnc1SCC1=C(C(=O)O)N2C(=O)[C@@H](NC(=O)[C@@H](O)c3ccccc3)[C@@H]2SC1: inactive
CCC(C)C(=O)OC1CC(O)C=C2C=CC(C)C(CCC(O)CC(O)CC(=O)O)C21 (configuration not stated): inactive
COc1cc(N)c(Cl)cc1C(=O)N[C@H]1CCN(CCCOc2ccc(F)cc2)C[C@H]1OC: active
C[C@@]12CCC(=O)C=C1C=CC1C2CC[C@]2(C)C1CC[C@@]21CCC(=O)O1 (some centres not stated): inactive

* * *

Measured on: Rap guanine nucleotide exchange factor 3 (Homo sapiens) (UniProt O95398)
Sequence (O95398 whole entry, looked up): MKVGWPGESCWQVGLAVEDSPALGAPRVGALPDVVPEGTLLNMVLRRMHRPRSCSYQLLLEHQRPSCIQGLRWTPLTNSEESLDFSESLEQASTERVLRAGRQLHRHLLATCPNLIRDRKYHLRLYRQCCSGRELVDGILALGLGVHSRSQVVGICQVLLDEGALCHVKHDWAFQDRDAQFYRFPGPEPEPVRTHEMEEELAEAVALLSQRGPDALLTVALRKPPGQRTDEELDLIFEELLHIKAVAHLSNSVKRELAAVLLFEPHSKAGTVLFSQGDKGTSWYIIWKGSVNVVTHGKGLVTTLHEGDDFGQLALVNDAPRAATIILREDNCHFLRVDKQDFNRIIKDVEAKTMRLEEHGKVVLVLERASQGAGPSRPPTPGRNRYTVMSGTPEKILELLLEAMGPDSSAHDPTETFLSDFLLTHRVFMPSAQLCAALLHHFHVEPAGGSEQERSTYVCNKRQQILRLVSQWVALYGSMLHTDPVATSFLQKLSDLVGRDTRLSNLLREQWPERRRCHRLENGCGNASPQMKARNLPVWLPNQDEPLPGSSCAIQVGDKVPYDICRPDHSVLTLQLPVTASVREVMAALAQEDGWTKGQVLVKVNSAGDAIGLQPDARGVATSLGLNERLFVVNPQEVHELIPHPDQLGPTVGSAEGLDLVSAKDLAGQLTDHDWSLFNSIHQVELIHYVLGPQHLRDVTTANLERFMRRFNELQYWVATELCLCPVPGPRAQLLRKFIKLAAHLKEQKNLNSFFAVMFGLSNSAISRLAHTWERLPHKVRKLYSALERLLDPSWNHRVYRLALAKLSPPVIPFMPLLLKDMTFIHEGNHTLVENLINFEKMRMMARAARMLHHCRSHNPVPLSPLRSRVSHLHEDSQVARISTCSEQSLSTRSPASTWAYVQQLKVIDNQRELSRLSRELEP
Experimental details: Confirmatory qHTS for antagonist of cAMP-regulated guanine nucleotide exchange factor 3 (EPAC1) (AID 1645880); further: nearly all actives have a fitted effect of over 55% in size
Particulars: EPAC1 Rap1B-BODIPY-GDP exchange, fluorescence; series mostly up to 115 µM
Records with an inconclusive call do not appear. The source made the active and inactive calls. Calls follow the shape of the dose curve; as a rule, active = well fitted inhibition curve with a large enough effect; inconclusive = small, poorly fitted or top-dose-only effect; inactive = no such curve, though single readings can be large or run the other way.
Outcome codes: yes (1) = active, no (0) = inactive

CCCc1nc2ccccc2c(=O)n1/N=C/c1ccccc1O: yes (1)
CN(C)c1ccc(/C=C/C(=O)c2ccc3c(c2)OCO3)cc1: no (0)
COCOCCn1cc(CN2CCS(=O)(=O)N(Cc3ccc(-c4ccc(C)cc4)cc3)C(CC(C)C)C2=O)nn1 (configuration not stated): no (0)
Cc1ccc2nc(NC(=O)CSc3ncnc4c3oc3ccccc34)sc2c1: no (0)
CC(C)Cn1c(N)c(C(=O)NCC2CCCO2)c2nc3ccccc3nc21 (configuration not stated): yes (1)
CN(C)S(=O)(=O)N1CCN(S(=O)(=O)N(C)C)CC1: no (0)
COC(=O)CSc1nc2c(c(=O)n(C)c(=O)n2C)n1CCCc1ccccc1: no (0)
CCCCCn1c(C)c2c(OCC)cccc(=O)c2c1C: no (0)
CCOC(=O)c1c(C)[nH]c(CCC(=O)NCc2cccc(OC)c2)c1C: no (0)
CC(C)CNc1cc(Cl)c(S(=O)(=O)NCC(C)C)cc1C(=O)O: no (0)
COc1ccc(S(=O)(=O)N2CCCCCC2)cc1C(=O)N1CCCC(C(F)(F)F)C1 (configuration not stated): no (0)
COC(=O)c1c(SC)nc2ccccc2c1OCc1cccc(C)c1: no (0)
O=C(Nc1ccc2nc(-c3ccc4nc[nH]c4c3)[nH]c2c1)c1cccs1: no (0)
O=C(Nc1ccccc1C(F)(F)F)N1CCC(CN2CCc3ccccc3C2)CC1: no (0)
Cc1ccc(C(=O)c2coc3ccc(O)c(Cl)c23)cc1: no (0)
CCOc1ccccc1NC(=O)COC(=O)c1ccc(S(=O)(=O)N2CCCC2)cc1: no (0)
Nc1c(-c2nc(-c3cccs3)no2)nnn1-c1cccc(Cl)c1: no (0)
